Measured melting point accompanies every entry in the list below.
ENDPOINT: melting point

COMPOUND | MEAS VALUE
O=c1c(CCC(O)c2ccncc2)cc2cccnc2n1-c1cccc([N+](=O)[O-])c1 (stereo not drawn) | 235 to 236 °C
O=c1c(CCCc2cccnc2)cc2cccnc2n1-c1ccc2nsnc2c1 | 173.5 to 174.5 °C
O=c1c(CCCc2ccccn2)cc2cccnc2n1-c1ccc2nsnc2c1 | 169.5 to 170.5 °C
O=c1c(CCCc2cnccn2)cc2cccnc2n1-c1cccc([N+](=O)[O-])c1 | 194 to 195 °C
CC(CCc1cc2cccnc2n(-c2cccc([N+](=O)[O-])c2)c1=O)c1cc[n+]([O-])cc1 (stereo not drawn) | 182.5 to 196.5 °C
Nc1cccc(-n2c(=O)c(CCC(O)c3ccncc3)cc3cccnc32)c1 (stereo not drawn) | 209 to 211 °C
O=c1c(CCCc2ccncc2)cc2cccnc2n1-c1ccc2nonc2c1 | 192 to 194 °C
CC(CCc1cc2cccnc2n(-c2cccc([N+](=O)[O-])c2)c1=O)c1ccncc1 (stereo not drawn) | 154 to 155 °C
CC(CCc1cc2cccnc2n(-c2cccc(N)c2)c1=O)c1ccncc1 (stereo not drawn) | 83 to 91 °C
